experiment: Inhibition of purified mammalian brain calcium [Ca(2+)]/Calmodulin dependent kinase
pIC50: −log10 of the molar value.

itemSmiles	pIC50
NC[C@@H]1CCn2cc(c3ccccc32)C2=C(C(=O)NC2=O)c2cn(c3ccccc23)CCO1	5.57
CN[C@@H]1C[C@H]2O[C@@](C)([C@@H]1OC)n1c3ccccc3c3c4c(c5c6ccccc6n2c5c31)C(=O)NC4	8.40
CN(C)C[C@@H]1CCn2cc(c3ccccc32)C2=C(C(=O)NC2=O)c2cn(c3ccccc23)CCO1	5.21
O=C1NC(=O)C2=C1c1cn(c3ccccc13)CCO[C@H](CN1CCCC1)CCn1cc2c2ccccc21	5.28
